Test system: KB-3-1
test_summary: Cytotoxic Profiling of Annotated Libraries Using Quantitative High-Throughput Screening (AID 1296008); further: on the % scale 0 is the no-effect control and ±100 the full control effect; nearly all actives have a fitted effect of over 60% in size
measurement_context: Five cell lines viability, CellTiter-Glo ATP luminescence, 48-72 h, stronger effect = lower value
Experimental: Cell-based phenotypic screening is a commonly used approach to discover biological pathways, novel drug targets, chemical probes and high-quality hit-to-lead molecules. […] A pintool (Kalypsys) was used to transfer 23 nL of compound solution to the 1536-well assay plates. […] Plates were left at room temperature for 10 min before imaging the ATP-coupled luminescence using a ViewLux microplate imager (PerkinElmer, Waltham, MA).
Records with an inconclusive call do not appear.
Each entry below carries its recorded max response.
// units = %; emit number, no label

Solved entries (count: 5):
1. CCCCCCCC(=O)OCC(COC(=O)CCCCCCC)OC(=O)CCCCCCC	-1.81
2. O=c1[nH]c(=O)c2ccccc2o1	-4.12
3. COc1ccc(NS(=O)(=O)c2ccc(N)cc2)nn1	14.2
4. CN(C(=O)c1c(O)c2ccccc2n(C)c1=O)c1ccccc1	9.88
5. C/C=C/C(=O)N(CC)c1ccccc1C	21.1

Q: Query for KB-3-1: what max response does the record show for O=C1C(c2[nH]c3ccccc3c2O)=Nc2ccccc21 ?
A: 4.4

Q: Query for KB-3-1: what max response does the record show for CC(=O)N1C[C@H](O)C[C@H]1C(=O)O ?
A: 8.51

Q: Query for KB-3-1: what max response does the record show for Cc1cc(C)c(NC(=O)CN(CC(=O)O)CC(=O)O)c(C)c1Br ?
A: 14.1

Q: Query for KB-3-1: what max response does the record show for CC1(C)[C@@H](OC(=O)CCC(=O)O)CC[C@]2(C)[C@H]3C(=O)C=C4[C@@H]5C[C@@](C)(C(=O)O)CC[C@]5(C)CC[C@@]4(C)[C@]3(C)CC[C@@H]12 ?
A: -3.96

Q: Query for KB-3-1: what max response does the record show for COc1cc(C(=O)NCCCCCC(=O)O)cc(OC)c1OC ?
A: 1.07

Q: Query for KB-3-1: what max response does the record show for CC(C)(C)C(=O)OCOC(=O)[C@@H]1N2C(=O)[C@@H](NC(=O)[C@H](N)c3ccccc3)[C@H]2SC1(C)C ?
A: -7.55

Q: Query for KB-3-1: what max response does the record show for NNC(=O)CP(=O)(c1ccccc1)c1ccccc1 ?
A: -1.94

Q: Query for KB-3-1: what max response does the record show for CCOc1ccccc1O[C@H](c1ccccc1)[C@H]1CNCCO1 ?
A: 2.06

====

Each entry below carries its recorded max response.
Test system: NIH3T3
test_summary: Cytotoxic Profiling of Annotated Libraries Using Quantitative High-Throughput Screening (AID 1296008); further: on the % scale 0 is the no-effect control and ±100 the full control effect; nearly all actives have a fitted effect of over 60% in size
measurement_context: Five cell lines viability, CellTiter-Glo ATP luminescence, 48-72 h; stronger effect = lower value
Records with an inconclusive call do not appear.
// units = %; emit number, no label

1) NC(N)=NCCN1CCCCCCC1	4.36

Q: GET /values?readout=max response&item= O=C(Cn1ccnc1[N+](=O)[O-])NCCO
A: 4.22

Q: GET /values?readout=max response&item= COc1ccc2cc(CCC(C)=O)ccc2c1
A: -0.0731

Q: GET /values?readout=max response&item= CC(C)=CCC/C(C)=C/CO
A: -13.7

====

Test system: PC26
test_summary: qHTS profiling for inhibitors of Plasmodium falciparum proliferation (AID 504749); further: nearly all actives have a fitted effect of over 60% in size
measurement_context: P. falciparum in erythrocytes, SYBR Green DNA, 72 h; series mostly up to 28.7 µM
Results filed as inconclusive are left out. The source made the active and inactive calls. Calls come from the whole dose curve; as a rule, active = well fitted inhibition curve with a large enough effect; inconclusive = small, poorly fitted or top-dose-only effect; inactive = flat fitted curve, though single readings scatter.
Reply using exactly one outcome from active, inactive

Use these answered entries as a reference point.
1. CC(=O)Oc1cccc(C)c1	inactive
2. Cc1cc(=O)[nH]c(=S)[nH]1	inactive
3. O=C(NCN1CCOCC1)c1cnccn1	inactive

Q: For this compound, state the assay outcome: CC(C)CCCC(C)CCCC(C)CCCCC(C)CCCC(C)CCCC(C)C (stereo unspecified)
A: inactive

Q: For this compound, state the assay outcome: Cc1cc(O)cc(C)c1Cl
A: active

Q: For this compound, state the assay outcome: CC(=O)OC[C@H]1O[C@@](COC(C)=O)(O[C@H]2O[C@H](COC(C)=O)[C@@H](OC(C)=O)[C@H](OC(C)=O)[C@H]2OC(C)=O)[C@@H](OC(C)=O)[C@@H]1OC(C)=O
A: inactive

====

experimental_system: Nuclear receptor subfamily 1 group I member 2 (Rattus norvegicus) (UniProt Q9R1A7)
Sequence (Q9R1A7 whole entry, looked up): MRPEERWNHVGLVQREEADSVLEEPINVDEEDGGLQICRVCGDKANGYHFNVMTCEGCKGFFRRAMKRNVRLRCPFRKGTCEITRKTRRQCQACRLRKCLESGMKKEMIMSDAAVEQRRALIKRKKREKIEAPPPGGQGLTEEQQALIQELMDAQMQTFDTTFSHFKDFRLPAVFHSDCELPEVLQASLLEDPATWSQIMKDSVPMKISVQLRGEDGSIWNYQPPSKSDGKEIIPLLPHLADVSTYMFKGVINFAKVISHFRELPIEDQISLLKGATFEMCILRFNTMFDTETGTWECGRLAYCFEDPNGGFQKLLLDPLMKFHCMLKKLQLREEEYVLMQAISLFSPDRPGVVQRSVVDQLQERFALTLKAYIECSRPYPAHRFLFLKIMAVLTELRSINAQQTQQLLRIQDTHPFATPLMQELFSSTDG
test_summary: qHTS assay for small molecule activators of the rat pregnane X receptor (rPXR) signaling pathway (AID 651751); further: 0% is about no effect
measurement_context: rPXR reporter cells, luciferase (One-Glo), 24 h
property_measured: max response (%)
// units = %; emit number, no label

Solved entries (count: 5):
1) C=CCNC(N)=S	-5.15
2) CCCCCCCC(=O)OCC(COC(=O)CCCCCCC)OC(=O)CCCCCCC	-0.801
3) Cc1cc(O)cc(C)c1Cl	1.15
4) Cc1cc(=O)[nH]c(=S)[nH]1	-6.87
5) CC(=O)Nc1ccccc1	2.33

Q: GET /values?readout=max response&item= CC(=O)NS(=O)(=O)c1ccc(N)cc1
A: -2.2

Q: GET /values?readout=max response&item= Cc1ccc(C(C)C)c(O)c1
A: -0.755

Q: GET /values?readout=max response&item= CCCCCCCCCCCCCCCCCCO
A: 0.797

====

test_summary: Drug repurposing screens with cells derived from glioblastoma tumor samples (AID 1345199); further: on the % scale 0 is the no-effect control and ±100 the full control effect; nearly all actives have a fitted effect of over 40% in size
measurement_context: GBM patient neurospheres viability, ATP luminescence, 48 h; at 46 µM (top of the series); tumour line A
Inconclusive results are not listed.
Values of activity, negative = cell killing strictly less than -20% map to satisfied, and values of at least -20% map to not satisfied.

Use these answered entries as a reference point.
1) CNc1c2c(nn1C)CCCC2	not satisfied
2) NC(=O)CCCCC1CCSS1 (stereo not given)	satisfied
3) CC(C)c1cc2c(cc1S(=O)(=O)O)[C@@]1(C)CCC[C@@](C)(C(=O)O)[C@@H]1CC2	not satisfied

Q: Quick check: does COc1ccccc1Oc1c(NS(=O)(=O)c2ccc(C(C)(C)C)cc2)nc(-c2ncccn2)nc1OCCO have activity, negative = cell killing under -20%?
A: satisfied

====

Tested on: MKL-1
test_summary: qHTS assay to identify novel small-molecules to repurpose for Merkel cell carcinoma treatment (AID 1296009)
measurement_context: MCC and control cell lines, CellTiter-Glo viability, 72 h; series mostly up to 46 µM
Records with an inconclusive call do not appear. The source made the active and inactive calls. Calls come from the whole dose curve; as a rule, active = well fitted inhibition curve with a large enough effect; inconclusive = small, poorly fitted or top-dose-only effect; inactive = flat fitted curve, though single readings scatter.
property_measured: activity change, negative = cytotoxicity

1) CCOC(=O)OC(C)OC(=O)[C@@H]1N2C(=O)[C@@H](NC(=O)[C@H](N)c3ccccc3)[C@H]2SC1(C)C (some centres not stated)	inactive
2) C=CCOc1ccccc1OCC(O)CNC(C)C (configuration not stated)	inactive
3) O=C(O)c1ccccc1OP(=O)(O)O	inactive
4) NC(N)=NCCN1CCCCCCC1	13.2% [at 0.597 µM] (inactive)
5) C=CCN1C[C@H](C(=O)N(CCCN(C)C)C(=O)NCC)C[C@@H]2c3cccc4[nH]cc(c34)C[C@H]21	inactive

Q: GET /values?readout=activity change, negative = cytotoxicity&item= CC(=O)N1C[C@H](O)C[C@H]1C(=O)O
A: inactive

====

test_summary: Drug repurposing screens with cells derived from glioblastoma tumor samples (AID 1345199); further: on the % scale 0 is the no-effect control and ±100 the full control effect; nearly all actives have a fitted effect of over 40% in size
measurement_context: GBM patient neurospheres viability, ATP luminescence, 48 h; at 45.9 µM (top of the series); tumour line D
Records with an inconclusive call do not appear.
Each entry below carries its recorded activity, negative = cell killing.
// units = %; emit number, no label

Solved entries (count: 3):
1. CC[C@]12CCCN3CCc4c(n(c5ccccc45)[C@@](O)(C(=O)OC)C1)[C@@H]32	5.83
2. CC[N+](CC)(CC(=O)Nc1c(C)cccc1C)Cc1ccccc1	-18.5
3. CNCc1ccccc1	-15.9

Q: GET /values?readout=activity, negative = cell killing&item= CC(C)c1cc2c(cc1S(=O)(=O)O)[C@@]1(C)CCC[C@@](C)(C(=O)O)[C@@H]1CC2
A: -7.28

Q: GET /values?readout=activity, negative = cell killing&item= O=C(c1ccccc1)C(O)c1ccccc1 (configuration not stated)
A: -16.7

====

Tested on: PAD
test_summary: qHTS profiling for inhibitors of Plasmodium falciparum proliferation (AID 504749); further: nearly all actives have a fitted effect of over 60% in size
measurement_context: P. falciparum in erythrocytes, SYBR Green DNA, 72 h; series mostly up to 28.7 µM
Procedure: NIH National Institute of Allergy and Infectious Diseases [NIAID] NIH Chemical Genomics Center [NCGC] […] Because mature erythrocytes lack DNA, only Plasmodium-derived DNA is detected. NCGC Assay Protocol Summary: The SYBR Green viability assay was adapted from a method described previously (Plouffe et al., 2008). […] The following morning, fluorescence intensity at 485(14) nm excitation and 535(25) nm emission wavelengths was measured on an EnVision (Perkin Elmer) plate reader. […]
Results filed as inconclusive are left out. Calls of active or inactive are those of the source. Calls follow the shape of the dose curve; as a rule, active = well fitted inhibition curve with a large enough effect; inconclusive = small, poorly fitted or top-dose-only effect; inactive = flat fitted curve, though single readings scatter.
Reply using exactly one outcome from active, inactive

1) OCc1ccc(Cl)cc1Cl	inactive
2) COc1cc(O)cc(O)c1	inactive
3) O=S1(=O)OC(c2ccc(O)cc2)(c2ccc(O)cc2)c2ccccc21	inactive
4) O=C(O)c1ccc(OCCCOc2ccc(C(=O)O)cc2)cc1	inactive
5) CCCCCCCCCCOc1cc2c(=O)c(C(=O)OCC)c[nH]c2cc1OCC	active
6) CC(=O)NCc1c(I)c(NC(C)=O)c(I)c(C(=O)O)c1I	inactive
7) Cc1ccsc1C(=CCCN1CCC[C@@H](C(=O)O)C1)c1sccc1C	inactive
8) O=C(O)c1ccc[n+]([O-])c1	inactive

Q: For this compound, state the assay outcome: Cc1c(Cn2ccnc2)c2ccccc2n1CCC(=O)O
A: inactive

Q: For this compound, state the assay outcome: O=C(NCCCN1CCOCC1)c1ccc(Cl)cc1
A: inactive

Q: For this compound, state the assay outcome: CC(O)CCCCn1c(=O)c2c(ncn2C)n(C)c1=O (stereo unspecified)
A: inactive

Q: For this compound, state the assay outcome: CCCCOC(=O)c1ccc(N)cc1
A: inactive

Q: For this compound, state the assay outcome: O=C(O)c1ccccc1C(=O)Nc1ccc(S(=O)(=O)Nc2nccs2)cc1
A: inactive

Q: For this compound, state the assay outcome: CC1CCN(CCCC(=O)c2ccc(F)cc2)CC1
A: inactive

Q: For this compound, state the assay outcome: Cc1ccc(S(=O)(=O)NC(=O)NC2CCCCCCC2)cc1
A: inactive

Q: For this compound, state the assay outcome: Cc1cccc(C(=O)O)c1O
A: inactive

Q: For this compound, state the assay outcome: NC(=O)CC[C@@H](N)C(=O)O
A: inactive

Q: For this compound, state the assay outcome: COc1ccc(NS(=O)(=O)c2ccc(N)cc2)nn1
A: inactive
